Source of measurements: paper PMC6270106

Tested on: LPS-induced iNOS-dependent NO production in RAW 264.7 cells
Experiment: Inhibition of LPS-induced iNOS-dependent NO production (Griess nitrite assay)
Assay type: cell-based, murine
Details: 12.5 μM, RAW 264.7, 100 ng/mL LPS, 24 h, nitrite by Griess; in µM (unit assumed)
# label = 1.0 if NO level >= 40 else 0.0

{"columns": ["compound", "system_name", "cat"],
 "data": [
  ["CC(=O)OCC1CC23CCC4[C@@](C)(CCC[C@]4(C)C(=O)O)C2CCC1C3 (stereo partly drawn)", "LPS-induced iNOS-dependent NO production in RAW 264.7 cells", 1.0],
  ["COc1ccc([C@@H]2CC(=O)c3ccc(OC)cc3O2)cc1", "LPS-induced iNOS-dependent NO production in RAW 264.7 cells", 1.0],
  ["C=C1C[C@@]23CC[C@H]4[C@@](C)(CCC[C@@]4(C)C(=O)O)[C@@H]2CC[C@@H]1C3", "LPS-induced iNOS-dependent NO production in RAW 264.7 cells", 0.0],
  ["C[C@@]12CCC[C@](C)(C=O)C1CCC13CC(CCC12)C(C(=O)O)C3 (stereo partly drawn) [Compound 5, 16α-hydro-19-al-ent-kauran-17-oic acid]", "LPS-induced iNOS-dependent NO production in RAW 264.7 cells", 0.0],
  ["C=C(C)C(CC[C@@H](CO)[C@H]1CC[C@@]2(C)C3CCC4C(C)(C)[C@@H](O)[C@H](O)C[C@@]45C[C@@]35CC[C@]12C)C(C)C (stereo partly drawn)", "LPS-induced iNOS-dependent NO production in RAW 264.7 cells", 0.0]
]}

====

# inhibition at 25 µM per record follows
Test system: LPS-induced iNOS-dependent NO production in RAW 264.7 cells
Test: Inhibition of LPS-induced iNOS-dependent NO production (Griess nitrite assay)
Format: cell-based, murine
Conditions: Mus musculus, RAW264.7; 25 μM, RAW 264.7, 100 ng/mL LPS, 24 h; read-out: NO inhibition (% of control) (converted)
readout: inhibition at 25 µM (%)

{"columns": ["compound", "readout_value"],
 "data": [
  ["COc1ccc([C@@H]2CC(=O)c3ccc(OC)cc3O2)cc1", 11],
  ["CC1(C)CC[C@]2(C)CC=C3[C@]4(C)CC[C@H]5C(C)(C)[C@@H](O)CC[C@]5(C)[C@H]4CC[C@@]3(C)[C@@H]2C1", 13.1],
  ["CC[C@H](CC[C@@H](C)[C@H]1CC[C@H]2[C@@H]3C[C@@H](O)C4=CC(=O)CC[C@]4(C)[C@H]3CC[C@]12C)C(C)C [Compound 6, 6β-hydroxystigmast-4-en-3-one]", 27.1]
]}

====

Tested on: RAW 264.7 cells
Assay: Cell viability (MTT) in the presence of LPS
Conditions: 25 μM, RAW 264.7, 100 ng/mL LPS, 24 h, MTT

{"columns": ["compound", "Cell viability (% of control)"],
 "data": [
  ["CC[C@H](CC[C@@H](C)[C@H]1CC[C@H]2[C@@H]3CC=C4C[C@@H](O)CC[C@]4(C)[C@H]3CC[C@]12C)C(C)C [Compound 4, β-sitosterol]", "80.7 ± 3.8 % of control"],
  ["C=C1C[C@@]23CC[C@H]4[C@@](C)(CCC[C@@]4(C)C(=O)O)[C@@H]2CC[C@@H]1C3 [Compound 2, kaurenoic acid]", "91.0 ± 3.6 % of control"],
  ["C[C@@]12CCC[C@](C)(C(=O)O)C1CCC13CC(CCC12)C(C(=O)O)C3 (stereo partly drawn) [Compound 8, 16α-hydro-ent-kauran-17,19-dioic acid]", "94.0 ± 2.6 % of control"],
  ["COc1ccc([C@@H]2CC(=O)c3ccc(OC)cc3O2)cc1 [Compound 9, (2S)-di-O-methylquiritigenin]", "90.0 ± 1.6 % of control"],
  ["CC(=O)OCC1CC23CCC4[C@@](C)(CCC[C@]4(C)C(=O)O)C2CCC1C3 (stereo partly drawn) [Compound 7, 17-acetoxy-16β-ent-kauran-19-oic acid]", "93.6 ± 4.0 % of control"],
  ["CC[C@H](CC[C@@H](C)[C@H]1CC[C@H]2[C@@H]3C[C@@H](O)C4=CC(=O)CC[C@]4(C)[C@H]3CC[C@]12C)C(C)C [Compound 6, 6β-hydroxystigmast-4-en-3-one]", "83.7 ± 3.5 % of control"],
  ["CC1(C)CC[C@]2(C)CC=C3[C@]4(C)CC[C@H]5C(C)(C)[C@@H](O)CC[C@]5(C)[C@H]4CC[C@@]3(C)[C@@H]2C1 [Compound 3, taraxerol]", "92.6 ± 3.1 % of control"],
  ["C[C@@]12CCC[C@](C)(C=O)C1CCC13CC(CCC12)C(C(=O)O)C3 (stereo partly drawn) [Compound 5, 16α-hydro-19-al-ent-kauran-17-oic acid]", "96.5 ± 9.2 % of control"]
]}
